Experiment: yeast display, Sf9 membrane polyspecificity reagent, FACS + sequencing; frameworks hold sequencing errors

chain.sequence	polyreactivity (PSR sort gate)
QVQLVESGGGLVQAGGSLRLSCAASGIYAYVMGWYRPAPGKERELVAAISGTGGRTYYADSVKGRFTISRDNAKNTVYLQMNSLKPEDTAVYYCAARGIYQPKTFDYWGQGTQVTVSS	high polyreactivity
QVQLVESGGGLVQAGGSLRLSCAASGRIFRRNTMGWYRQAPGKERELVAAITSSGGSTYADSVKGRFTISRDNAKNTVYLQMNSLTPEDTAVYYCATYVAYHRGYRTYDHWGQGTHVTVSS	low polyreactivity
QVQHVESGGGLVQAGGSLRLSCAASGNNVMGWYRQAPGKDRELVGAISWSGTSTYADSVKGRFTISRVNAKNTVYLKMNSLKPEDTAVYYCAAEQQGRNYRAYRRYDYWGQGTQVTVSS	low polyreactivity
QVQLVESGGGLVQAGGSLRLSCAGSGRIFRTYAMGWFRQAPGKEGEFVAGISRGGSTDYADSVKGRFTISRDNEKNTVYLQMNSLKPEDSAVYYCAAASLRYYSPRVRYPYYYWGQGTQVTVSS	high polyreactivity
